Test system: DU4475 cells
Assay: Cell-based assay, anti-proliferative activity (Cell Counting Kit-8, 72 hours)
Design: species or system human
Conditions: Homo sapiens, DU-4475, read-out: IC50, in vitro anti-proliferative assay
Structures can show the parent of a compound that is named as a salt.
Measured Quantity: IC50

Write down IC50 measured for item CC(=O)c1cnc2ccc(-c3cc(Cl)c(O)c(Cl)c3)nc2c1N[C@H]1CC[C@H](CN(C)C)CC1 [Example 6, dihydrochloride]
2.3 nM

* * *

Tested on: A549 cells
Test: Cell-based assay, anti-proliferative activity (Cell Counting Kit-8, 72 hours)
Design: species or system human
Details: Homo sapiens, A549, 72 h, read-out: IC50 (μM) (A549)
Where a name gives a salt, the structure may show the parent alone.
Measured Quantity: IC50 (µM)
Answers are plain numbers, in µM.

Study these solved cases before continuing.
Compound	Measured Quantity	Measured Value
CC(=O)c1cnc2ccc(-c3cc(Cl)c(O)c(Cl)c3)nc2c1N[C@H]1CC[C@H](N(C)C)CC1 [Example 2, dihydrochloride]	IC50	0.004
COc1cc(-c2ccc3ncc(C(C)=O)c(N[C@H]4CC[C@H](CN(C)C)CC4)c3n2)cc(Cl)c1O [Example 8, dihydrochloride]	IC50	0.024
CC(=O)c1cnc2ccc(-c3cnc4[nH]ccc4c3)nc2c1N[C@H]1CC[C@H](CN(C)C)CC1 [Example 82, trihydrochloride]	IC50	0.33
CCC(=O)c1cnc2ccc(-c3cc(F)c(O)c(Cl)c3)nc2c1Nc1ccc(N2CCC[C@H](N)C2)nc1 [Example 208, trihydrochloride]	IC50	0.063
CC(=O)c1cnc2ccc(-c3cc(Cl)c(O)c(Cl)c3)nc2c1Nc1ccc(CCN(C)C)cc1 [Example 29, dihydrochloride]	IC50	0.11
CN(C)C[C@H]1CC[C@H](Nc2c(C(=O)C3CC3)cnc3ccc(-c4cc(F)c(O)c(Cl)c4)nc23)CC1 [Example 5, dihydrochloride]	IC50	0.0061
CC(=O)c1cnc2ccc(-c3cc(Cl)c(O)c(Cl)c3)nc2c1NC1CCN(C)CC1	IC50	0.065
CC(=O)c1cnc2ccc(N3CCCC3)nc2c1N[C@H]1CC[C@H](CN2CCCC2)CC1	IC50	6.8
CC(=O)c1cnc2ccc(-c3cc(F)c(O)c(Cl)c3)nc2c1N[C@H]1CC[C@H](CN(C)CCO)CC1 [Example 49, dihydrochloride]	IC50	0.021
CN(C)C[C@H]1CC[C@H](Nc2c(S(C)(=O)=O)cnc3ccc(-c4cc(F)c(O)c(Cl)c4)nc23)CC1 [Example 13, dihydrochloride]	IC50	0.073

Each of the following entries comes with a recorded value; kindly state IC50 for each.
1. CN(C)C[C@H]1CC[C@H](Nc2c(C(=O)C3CCC3)cnc3ccc(-c4cc(F)c(O)c(Cl)c4)nc23)CC1 [Example 212, dihydrochloride]
2. N[C@H]1CCCN(c2ccc(Nc3c(C(=O)C4CC4)cnc4ccc(-c5cc(F)c(O)c(Cl)c5)nc34)cn2)C1
3. CN(C)Cc1ccc(Nc2c(S(C)(=O)=O)cnc3ccc(-c4cc(F)c(O)c(Cl)c4)nc23)cc1 [Example 17, dihydrochloride]

0.014
0.09
0.83

* * *

Test system: HT1197 cells
Test: Cell-based assay, anti-proliferative activity, MELK-negative control (Cell Counting Kit-8, 72 hours)
Parameters: species or system human
Conditions: Homo sapiens, HT1197, 72 h, read-out: IC50 (μM) (HTll97)
Where a name gives a salt, the structure may show the parent alone.
Class boundaries, taken from values of IC50, are as follows: low group = under 0.2 µM, middle group = from 0.2 µM up to 2 µM, high group = 2 µM and over

Molecule	Category Label
CC(=O)c1cnc2ccc(-c3cc(Cl)c(O)c(Cl)c3)nc2c1NC[C@H]1CC[C@H](N(C)C)CC1 [Example 89, dihydrochloride]	middle group
CC(C)C(=O)c1cnc2ccc(-c3cc(F)c(O)c(Cl)c3)nc2c1N[C@H]1CC[C@H](CN(C)C)CC1 [Example 217, dihydrochloride]	low group
CC(=O)c1cnc2ccc(-c3cc(Cl)c(O)c(Cl)c3)nc2c1N[C@H]1CC[C@H](CN2CCOCC2)CC1 [Example 47]	low group
CCC(=O)c1cnc2ccc(-c3cc(Cl)c(O)c(Cl)c3)nc2c1Nc1ccc(N2CCC[C@H](N)C2)nc1 [Example 207, trihydrochloride]	high group
CC(=O)c1cnc2ccc(-c3cc(F)c(O)c(Cl)c3)nc2c1N[C@H]1CC[C@H](NC(=O)[C@@H]2CCCN2)CC1 [Example 76, dihydrochloride]	high group
CN(C)C[C@H]1CC[C@H](Nc2c(C(=O)C3CCC3)cnc3ccc(-c4cc(F)c(O)c(Cl)c4)nc23)CC1 [Example 212, dihydrochloride]	low group

Exam item: assign CC(=O)c1cnc2ccc(-c3cc(Cl)c(O)c(Cl)c3)nc2c1Nc1ccc(CN2CCN(C)CC2)cc1 [Example 34, trihydrochloride] to the correct category.
middle group

Which class does N[C@@H]1CCCN(c2ccc(Nc3c(C(=O)C4CC4)cnc4ccc(-c5cc(Cl)c(O)c(Cl)c5)nc34)cn2)C1 [Example 201] fall in?
low group

Returns: class label. Input: CN(C)Cc1ccc(Nc2c(S(C)(=O)=O)cnc3ccc(-c4cc(F)c(O)c(Cl)c4)nc23)cc1 [Example 17, dihydrochloride]
high group

Category of CC(=O)c1cnc2ccc(-c3cc(Cl)c(O)c(Cl)c3)nc2c1Nc1ccc(N2CCC(N(C)C)C2)nc1 (stereo not shown) [Example 51, trihydrochloride] , please.
high group

Place this molecule in its band: CC(=O)c1cnc2ccc(-c3cc(F)c(O)c(Cl)c3)nc2c1N[C@H]1CC[C@H](CN(C)CCO)CC1 [Example 49, dihydrochloride]
middle group

Class label required: CC(=O)c1cnc2ccc(-c3cc(Cl)c(O)c(Cl)c3)nc2c1N[C@H]1CC[C@H](CN2CC[C@@H](F)C2)CC1 [Example 209, dihydrochloride]
low group

Into which category would you place CC(=O)c1cnc2ccc(-c3cc(F)c(O)c(Cl)c3)nc2c1N[C@H]1CC[C@H](CN2CCCC2)CC1 [Example 62, dihydrochloride] ?
low group

# classify by IC50 band: CC(=O)c1cnc2ccc(-c3cn[nH]c3)nc2c1N[C@H]1CC[C@H](CN(C)C)CC1 [Example 42, trihydrochloride]
low group

Quick check: band for CC(=O)c1cnc2ccc(-c3cc(Cl)c(O)c(Cl)c3)nc2c1N[C@H]1CC[C@H](NC(=O)C(N)C(C)C)CC1 (stereo partly shown) [Example 79, dihydrochloride]
high group

Input CC(=O)c1cnc2ccc(-c3cnc(C#N)nc3)nc2c1N[C@H]1CC[C@H](CN(C)C)CC1 [Example 57] ; output its category
middle group

Assign a category based on measured IC50 for CC(=O)c1cnc2ccc(-c3cc(F)c(O)c(Cl)c3)nc2c1N[C@H]1CC[C@H](N(C)C)CC1 [Example 3, dihydrochloride] and give only the class name.
middle group

Which category fits this record: CC(=O)c1cnc2ccc(-c3cc(F)c(O)c(Cl)c3)nc2c1Nc1ccc(OCCN(C)C)nc1 [Example 22, dihydrochloride]
high group

Note: place this molecule into its band. Item: CC(=O)c1cnc2ccc(-c3cc(F)c(O)c(Cl)c3)nc2c1Nc1ccc(CCN(C)C)cc1 [Example 30, dihydrochloride]
middle group

* * *

Could you please report measured IC50 for the items listed next?
Test system: A549 cells
Test: Cell-based assay, anti-proliferative activity (Cell Counting Kit-8, 72 hours)
Set-up: species or system human
Conditions: Homo sapiens, A549, 72 h, read-out: IC50 (μM) (A549)
Where a name gives a salt, the structure may show the parent alone.
Give bare numbers, in µM.

Some solved entries appear below for comparison.
Compound	U	Measured Value
CC(=O)c1cnc2ccc(-c3cc(F)c(O)c(F)c3)nc2c1N[C@H]1CC[C@H](CN(C)C)CC1 [Example 50, dihydrochloride]	µM	0.015
CC(=O)c1cnc2ccc(-c3cc(Cl)c(O)c(Cl)c3)nc2c1N[C@H]1CC[C@H](CN2CC[C@@H](F)C2)CC1 [Example 209, dihydrochloride]	µM	0.037
COc1cc(-c2ccc3ncc(C(C)=O)c(Nc4ccc(OCCN(C)C)nc4)c3n2)cc(Cl)c1O [Example 23, dihydrochloride]	µM	0.47

Next compound, IC50 to be filled in.
Param request: IC50 | system A549 cells | item CN(C)[C@H]1CC[C@H](Nc2c(S(C)(=O)=O)cnc3ccc(-c4cc(F)c(O)c(Cl)c4)nc23)CC1 [Example 32, dihydrochloride]
0.2

* * *

Molecular target: MELK (Homo sapiens)
Sequence (Q14680 whole entry, looked up): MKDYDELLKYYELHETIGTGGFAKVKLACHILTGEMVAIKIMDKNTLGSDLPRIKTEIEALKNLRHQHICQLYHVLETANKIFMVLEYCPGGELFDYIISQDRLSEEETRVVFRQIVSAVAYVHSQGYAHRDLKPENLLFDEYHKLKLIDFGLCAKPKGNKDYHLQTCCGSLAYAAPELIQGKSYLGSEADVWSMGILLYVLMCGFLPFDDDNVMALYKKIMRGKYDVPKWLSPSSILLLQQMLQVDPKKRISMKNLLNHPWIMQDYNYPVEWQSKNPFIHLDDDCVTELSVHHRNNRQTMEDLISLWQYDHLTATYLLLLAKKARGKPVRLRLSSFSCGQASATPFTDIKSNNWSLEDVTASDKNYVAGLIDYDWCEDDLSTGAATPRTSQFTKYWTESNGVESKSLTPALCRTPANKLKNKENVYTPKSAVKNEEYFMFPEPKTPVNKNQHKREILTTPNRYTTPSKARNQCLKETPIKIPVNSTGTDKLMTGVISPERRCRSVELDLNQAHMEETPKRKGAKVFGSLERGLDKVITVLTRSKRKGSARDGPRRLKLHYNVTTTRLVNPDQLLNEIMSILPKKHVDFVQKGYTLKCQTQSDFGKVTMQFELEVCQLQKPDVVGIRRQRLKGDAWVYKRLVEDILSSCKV
Experiment: Kinase assay (IMAP fluorescence polarization, FITC-labeled histone H3 peptide)
Type: biochemical
Settings: 50 micro-M ATP
Counter-ions that a name gives are not always drawn.
One threshold, 0.002 µM, splits the recorded IC50 values: lower ones are Y, equal or higher ones are N.

Some entries whose results are on file:
Compound	Category Label
CNC1CCN(c2ccc(Nc3c(C(C)=O)cnc4ccc(-c5cc(Cl)c(O)c(Cl)c5)nc34)cn2)C1 (centres unmarked) [Example 53, trihydrochloride]	Y
N[C@H]1CCCN(c2ccc(Nc3c(C(=O)C4CC4)cnc4ccc(-c5cc(Cl)c(O)c(Cl)c5)nc34)cn2)C1 [Example 40, trihydrochloride]	Y
CC(=O)c1cnc2ccc(-c3cc(Cl)c(O)c(Cl)c3)nc2c1Nc1ccc(CN2CCN(C)CC2)cc1 [Example 34, trihydrochloride]	N
CC(=O)c1cnc2ccc(-c3cc(F)c(O)c(Cl)c3)nc2c1NC1CCN(C)CC1	N

Is it true that IC50 reported for CC(=O)c1cnc2ccc(-c3cc(F)c(O)c(Cl)c3)nc2c1N[C@H]1CC[C@H](N)CC1 [Example 67, dihydrochloride] is less than 0.002 µM?
Y

Does the reported IC50 of the following compound sit strictly below 0.002 µM? CC(=O)c1cnc2ccc(-c3cc(Cl)c(O)c(Cl)c3)nc2c1Nc1ccc(NCCN(C)C)nc1 [Example 38, trihydrochloride]
N

Hello, is IC50 of the following compound strictly smaller than 0.002 µM? "CC(=O)c1cnc2ccc(-c3cc(Cl)c(O)c(Cl)c3)nc2c1N[C@H]1CC[C@H](CN2CCOCC2)CC1"
N

Consider the compound COc1cc(-c2ccc3ncc(C(C)=O)c(Nc4ccc(CCN(C)C)cc4)c3n2)cc(Cl)c1O [Example 31, dihydrochloride] . Is its IC50 strictly less than 0.002 µM?
N

API: query returns whether the compound falls strictly under 0.002 µM in IC50. Query: CN(C)[C@H]1CC[C@H](Nc2c(C(=O)CO)cnc3ccc(-c4cc(Cl)c(O)c(Cl)c4)nc23)CC1 [Example 203, dihydrochloride]
Y

State whether 0.002 µM exceeds IC50 recorded for CN(C)[C@H]1CC[C@H](Nc2c(S(C)(=O)=O)cnc3ccc(-c4cc(F)c(O)c(Cl)c4)nc23)CC1 [Example 32, dihydrochloride] .
Y

Item CC(=O)c1cnc2ccc(-c3cc(Cl)c(O)c(Cl)c3)nc2c1Nc1ccc(N2CCC[C@H](N)C2)nc1 [Example 71, trihydrochloride] : IC50 beneath 0.002 µM, strictly?
Y

Is it true that IC50 reported for CC(=O)c1cnc2ccc(-c3cc(F)c(O)c(Cl)c3)nc2c1N[C@H]1CC[C@H](CN2CCN(C)CC2)CC1 [Example 68, trihydrochloride] is less than 0.002 µM?
N

Does the reported IC50 of the following compound sit strictly below 0.002 µM? N[C@H]1CCCN(c2ccc(Nc3c(C(=O)C4CCC4)cnc4ccc(-c5cc(F)c(O)c(Cl)c5)nc34)cn2)C1 [Example 210, dihydrochloride]
Y

In plain terms, does CN(C)Cc1ccc(Nc2c(S(C)(=O)=O)cnc3ccc(-c4cc(Cl)c(O)c(Cl)c4)nc23)cc1 [Example 16, dihydrochloride] come in under 0.002 µM for IC50?
N

Here's an entry: CC(=O)c1cnc2ccc(-c3cc(Cl)c(O)c(Cl)c3)nc2c1N[C@H]1CC[C@H](NC(=O)C(C)N)CC1 (some centres unmarked) [Example 73, dihydrochloride] . Is its IC50 below 0.002 µM?
N

Is IC50 strictly under 0.002 µM for the entry CC(=O)c1cnc2ccc(-c3cc(F)c(O)c(Cl)c3)nc2c1Nc1ccc(CCN(C)C)cc1 [Example 30, dihydrochloride] ?
N

Could you please tell me whether IC50 recorded for CN(C)C[C@H]1CC[C@H](Nc2c(S(C)(=O)=O)cnc3ccc(-c4cc(F)c(O)c(Cl)c4)nc23)CC1 [Example 13, dihydrochloride] is less than 0.002 µM?
Y

Record "N[C@@H]1CCCN(c2ccc(Nc3c(C(=O)C4CC4)cnc4ccc(-c5cc(Cl)c(O)c(Cl)c5)nc34)cn2)C1" : is its IC50 strictly below 0.002 µM?
Y

Lab note: IC50 threshold 0.002 µM. Does this compound come in strictly under it? CC(=O)c1cnc2ccc(-c3c(C)n[nH]c3C)nc2c1N[C@H]1CC[C@H](CN(C)C)CC1 [Example 58, trihydrochloride]
N

Given the entry CN(C)CCOc1ccc(Nc2c(S(C)(=O)=O)cnc3ccc(-c4cc(F)c(O)c(Cl)c4)nc23)cn1 [Example 25, dihydrochloride] , would its reported IC50 be below 0.002 µM?
N

Identify whether the compound CC(=O)c1cnc2ccc(-c3cc(Cl)c(O)c(Cl)c3)nc2c1Nc1ccc(OCCN(C)C)nc1 [Example 21, dihydrochloride] records IC50 below 0.002 µM.
N

The reported measurements were obtained from patent US9067937B2.
